# reported melting point; entries follow

Some molecules with recorded melting point:
CC(C)c1c(C=CC2CC(O)CC(O)O2)n(CC2CCCCC2)c(=O)c2ccccc12 (mixture of isomers) = 207 to 209 °C
COc1ccc(S(=O)(=O)c2c(C(C)C)nn3ccccc23)cc1 = 138 to 139 °C
COC(=O)C(Cl)=Cc1cc(N)ccc1Cl = 104 to 105 °C
COc1ccc(C(=O)Cc2ncccc2C(=O)O)cc1 = 158 to 163 °C
N=C(NS(=O)(=O)c1ccc(F)cc1)C1=NN(c2ccc(Cl)cc2)C(c2ccccc2)C1 (centres undefined) = 200 to 204 °C

GET /values?readout=melting point&item= O=C1Nc2ccc(Cl)cc2C1c1ccccc1Cl (centres undefined)
198 to 200 °C

Another molecule to look at: CCN(CC)CCCNc1ncc2cc(-c3c(Br)cccc3Br)c(N)nc2n1
226 to 230 °C

Another molecule to look at: CC(C)(Oc1ccc(Cl)cc1)C(=O)N1[C@@H](C(=O)O)C(C)(C)S[C@H]1c1ccccc1
177 to 181 °C

Another molecule to look at: CC(CSCCSCCSCC(C)C(=O)Nc1ccc(Nc2ccccc2)cc1)C(=O)Nc1ccc(Nc2ccccc2)cc1 (centres undefined)
131 to 134 °C

====

# reported melting point; entries follow

COc1cc2ccccc2[nH]c1=O = 188 to 189 °C
CC12CCC3c4ccc(O)cc4CCC3C1CC(O)C2 (configuration not stated) = 181 to 182 °C
CCN1C(=O)C(C)(C)C(=O)N(C)c2cc(CN(CCn3c(=O)ccc4ccccc43)Cc3ccc(C)nc3C)ccc21 = 159 to 160 °C
C#CCC(Cc1cccnc1)(C(=O)O)S(=O)(=O)c1ccc(OC)cc1 (configuration not stated) = 119 to 121 °C
CCCCC(=N)NC(=O)N(C)c1ccc(Cl)cc1 = 59 to 61 °C
COc1cc(C=O)cc(OC)c1OCc1ccc([N+](=O)[O-])cc1 = 148 to 149 °C
CCCCC1CCC2(C)C(=CCC3C4CCC(=O)C4(C)CCC32)C1 (configuration not stated) = 84 to 86 °C
CCCCCCCCCCN1C(=O)C2CC2(c2ccc(N)cc2)C1=O (configuration not stated) = 92 to 94 °C
CC(C)(C)[PH](=O)Cc1ccccc1 (configuration not stated) = 80 to 82 °C
CCOC(=O)C(=CNc1ncccc1C)C(=O)OCC = 65 to 67 °C

GET /values?readout=melting point&item= O=C1COc2cccc3nc4c(c(c23)N1)CCCC4
201 to 202 °C

Another molecule to look at: CC(C)N(Cc1nc(-c2ccccc2)no1)C(=O)COc1ccc(C(=O)O)cc1
211 to 214 °C

Another molecule to look at: Nc1nc(NCc2ccccc2)nc(C(F)(F)F)n1
183 to 185 °C

Another molecule to look at: COc1ccc2c(c1)c(CC(=O)NN)cn2Cc1ccccc1
143 to 144 °C

Another molecule to look at: COC(=O)CN1C(=O)c2c(c3cc(C)ccc3n2C)S1(=O)=O
248 °C

Another molecule to look at: CCCCCCCCCCCCCCCCCCOc1ccc(C=Cc2ccc(S(=O)(=O)CCCO)cc2)cc1
137 °C

====

# reported melting point; entries follow

Some compounds with recorded melting point:
CCCN1CCc2ccc(C(=O)CCC(=O)N3CCC(c4ccc(Cl)cc4)CC3)cc2CC1 = 151 to 152 °C
CCCCCCCCCCOc1cc(OCCCOc2ccc(OCc3ccccc3)cc2)cc(C(=O)O)c1 = 107 to 109 °C
O=C(O)Cc1ccc2c(c1)CC(CCNS(=O)(=O)c1ccccc1)C2 (stereo not given) = 102 to 103 °C
CC1(C)C=C(c2ccccn2)C2=C(CC=CC(C#N)=C2)C1 = 120 °C

Next compound, melting point to be filled in.
GET /values?readout=melting point&item= CC(C)(C)[Si](C)(C)OC(CCCO)COc1ccc2c(=O)cc(-c3ccccc3)oc2c1 (stereo not given)
124 to 125 °C

====

readout.type: melting point

COc1cc(OC)cc(N2Cc3cnc(SC)nc3N=C2N)c1 = 198 to 204 °C

GET /values?readout=melting point&item= COC(=O)c1nc(Cl)c(Cl)c(N)c1I
122 to 123 °C

Another compound to look at: O=c1c2cccc(O)c2nc(-c2ccc(OCCCl)cc2)n1-c1ccc(O)cc1
188 to 190 °C

Another compound to look at: CCc1c(C)nc2cccc(C)n2c1=O
127 to 128 °C

Another compound to look at: Cc1nc(C)c(Cl)c(NCc2ccc(OCCn3c([N+](=O)[O-])cnc3C)cn2)n1
182 to 184 °C

Another compound to look at: C=CCn1c2ccc(OC)cc2c2c3c(c(-c4ccccc4Cl)cc21)C(=O)N(Cc1ccc(OC)cc1OC)C3=O
171 to 173 °C

Another compound to look at: Cc1ccc(S(=O)(=O)Nc2cccc(Sc3ccccc3)n2)cc1
128 to 130 °C

Another compound to look at: COc1ccc(S(=O)(=O)N(Cc2cccnc2)c2c(C)cc(-c3cccs3)cc2C(=O)O)cc1
191 °C

Another compound to look at: CC1C(Cc2ccccc2)C(=O)N(Cc2ccccc2)c2ccccc2N1C(=O)CN1C(=O)c2ccccc2C1=O (centres undefined)
213 to 214 °C

====

readout.type: melting point

Some compounds with recorded melting point:
O=C(Nc1ccc(CCc2ccc(Cl)c(Cl)c2)cc1)C1CSc2ccccc2C1=O (stereo unspecified) = 234 to 236 °C
CC(C)N(c1ccc(C#N)cc1[N+](=O)[O-])S(=O)(=O)c1ccc(Cl)cc1 = 168 °C
c1cc2c3c(c1)nc(N1CCOCC1)n3CCC2 = 93 to 94 °C
CCCc1cc(C(O)=S)cc(N)c1C(=O)c1ccccc1 = 124 to 126 °C

Next compound, melting point to be filled in.
GET /values?readout=melting point&item= COc1cccc(-c2cccc(C(N)=O)c2)c1
138 to 140 °C

====

# reported melting point; entries follow

Cn1c(CBr)c(C(=O)c2ccccc2)c(=O)n(C)c1=O = 164 to 167 °C
COCc1sc(N)nc1C = 132 to 135 °C
Nc1nc(=O)n(CC2CC2)cc1F = 224 to 226 °C

GET /values?readout=melting point&item= O=C(O)CCCCCCCCCNS(=O)(=O)c1ccc(Cl)cc1
192 to 194 °C

Another compound to look at: CC(C)(Cc1c(Sc2ccccc2)c2cc(F)ccc2n1Cc1ccc(Cl)cc1)C(=O)O
162 to 163 °C

====

readout.type: melting point

COc1cccc2c(Nc3ccccc3C)c(C(=O)C(C)C)cnc12 = 116 to 118 °C

GET /values?readout=melting point&item= BrCc1ccc2nc(-c3cccs3)ccc2c1
95 °C

Another compound to look at: COC(=O)c1ccc(C(F)(F)F)cc1Sc1ccccc1
55 to 60 °C

Another compound to look at: N#CC(=Cc1cccnc1)c1cc(Cl)cc(Cl)c1
139 to 141 °C

Another compound to look at: CS(=O)(=O)c1ccc(Oc2cc(OC3CCOCC3)c3[nH]c(C4=NCC(CCO)S4)cc3c2)cc1 (stereo not given)
116 to 117 °C

====

readout.type: melting point

Some compounds with recorded melting point:
Cc1ccc(-n2ccc(=O)c(-c3ccnn3-c3ccccc3)n2)cc1 = 182 to 183 °C
Cc1ccc(Sc2c(O)c3ccc(Cl)cc3[nH]c2=O)cc1C = 267 to 268 °C
CC(=O)Nc1cccc2c(Br)ccc(C)c12 = 227 to 229 °C
CN1C(=O)C(C2=COc3ccccc3O2)=C(c2c[nH]c3cc(F)ccc23)C1=O = 214 °C
CC(=O)NCCOC(=O)C(Oc1cccc(C(F)(F)F)c1)c1ccc(Cl)cc1 (stereo not given) = 93 to 95 °C
CCOC(=O)C(C)(C)Oc1ccc(-c2ccc(CCNC(=O)c3ccccc3C)cc2)cc1 = < 20 °C
Nc1cc(Cl)cc(Cl)c1I = 61 to 63 °C
CCN(CC)C(=O)c1c(CO)cccc1[Si](C)(C)C = 81 to 82.5 °C

GET /values?readout=melting point&item= Cc1ccc2c(c1)OC(CCO)C(=O)N2 (stereo not given)
143 to 144 °C

Another compound to look at: Cc1ccc2c(c1)oc1c(C(=O)NN3CCCC3)nn(-c3ccc(Cl)cc3Cl)c12
90 to 92 °C

====

readout.type: melting point

Some compounds with recorded melting point:
CCC(=O)NN=C(c1ccc(Cl)cc1)c1ccc(OS(C)(=O)=O)cc1 = 128 to 144 °C
O=C1Cc2ccccc2C12COc1cc3c(cc12)OCC(Cc1ccccc1C(F)F)O3 (stereo not given) = 191 to 193 °C

GET /values?readout=melting point&item= O=c1cncc2ccccc2n1
213 °C

Another compound to look at: NC(=O)c1nc(-c2cccc(O)c2)nc2c1[nH]c(=O)n2Cc1ccccc1
362 to 366 °C

Another compound to look at: N#CCCSCc1csc(NC(=N)N)n1
127 to 128 °C

Another compound to look at: COc1ccc2c(c1)S(=O)(=O)c1cc(OC(C)=O)c(OC)cc1N2
265 to 268 °C

Another compound to look at: CN(C)S(=O)(=O)c1cccc(-c2ccnc(C(=O)N(O)Cc3ccccc3)c2)c1
110 to 115 °C
